# Protocol Details: Third PK study: intravenous dose on day 1 or on day 6 after 5 days oral dosing
# Type: in vivo, female Swiss Albino mice
# Condition Info: female, Swiss Albino, mouse, plasma, iv, 5 mg/kg, Group 2, Day 6: 5 mg/kg i.v. after 10 mg/kg oral daily for 5 days, female mice
# Protocol: In a third study female Swiss Albino mice were administered intravenously (bolus, 5 mL/kg) dose of 5 mg/kg of the compound of formula (I). Group 1 (9 mice) received a single i.v. dose administration on day 1. Group 2 (9 mice) received daily oral administration of 10 mg/kg of the compound of formula (I) from day 1 to day 5 following by a single i.v. dose administration of 5 mg/kg of the compound of formula (I) on day 6. […] PK parameters were calculated using Phoenix® WinNonLin 6.4. […]
Assay Endpoint: C0 (ng/mL)
I only need the number, in ng/mL, no unit after it.

In: So what's the measured C0 for this one? COc1cc(N2CCNCC2)ccc1Nc1ncc2c(n1)-n1ccc(C(=O)Nc3c(C)cccc3C)c1CC2 [compound of formula (I)]
Out: 627

Hello, the source for this data is patent US20250057844A1, in case you need it.
